test_system: Death-associated protein kinase 1 (Homo sapiens) (UniProt P53355);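 note: each value is a mean inhibition figure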
Sequence (P53355 whole entry, looked up): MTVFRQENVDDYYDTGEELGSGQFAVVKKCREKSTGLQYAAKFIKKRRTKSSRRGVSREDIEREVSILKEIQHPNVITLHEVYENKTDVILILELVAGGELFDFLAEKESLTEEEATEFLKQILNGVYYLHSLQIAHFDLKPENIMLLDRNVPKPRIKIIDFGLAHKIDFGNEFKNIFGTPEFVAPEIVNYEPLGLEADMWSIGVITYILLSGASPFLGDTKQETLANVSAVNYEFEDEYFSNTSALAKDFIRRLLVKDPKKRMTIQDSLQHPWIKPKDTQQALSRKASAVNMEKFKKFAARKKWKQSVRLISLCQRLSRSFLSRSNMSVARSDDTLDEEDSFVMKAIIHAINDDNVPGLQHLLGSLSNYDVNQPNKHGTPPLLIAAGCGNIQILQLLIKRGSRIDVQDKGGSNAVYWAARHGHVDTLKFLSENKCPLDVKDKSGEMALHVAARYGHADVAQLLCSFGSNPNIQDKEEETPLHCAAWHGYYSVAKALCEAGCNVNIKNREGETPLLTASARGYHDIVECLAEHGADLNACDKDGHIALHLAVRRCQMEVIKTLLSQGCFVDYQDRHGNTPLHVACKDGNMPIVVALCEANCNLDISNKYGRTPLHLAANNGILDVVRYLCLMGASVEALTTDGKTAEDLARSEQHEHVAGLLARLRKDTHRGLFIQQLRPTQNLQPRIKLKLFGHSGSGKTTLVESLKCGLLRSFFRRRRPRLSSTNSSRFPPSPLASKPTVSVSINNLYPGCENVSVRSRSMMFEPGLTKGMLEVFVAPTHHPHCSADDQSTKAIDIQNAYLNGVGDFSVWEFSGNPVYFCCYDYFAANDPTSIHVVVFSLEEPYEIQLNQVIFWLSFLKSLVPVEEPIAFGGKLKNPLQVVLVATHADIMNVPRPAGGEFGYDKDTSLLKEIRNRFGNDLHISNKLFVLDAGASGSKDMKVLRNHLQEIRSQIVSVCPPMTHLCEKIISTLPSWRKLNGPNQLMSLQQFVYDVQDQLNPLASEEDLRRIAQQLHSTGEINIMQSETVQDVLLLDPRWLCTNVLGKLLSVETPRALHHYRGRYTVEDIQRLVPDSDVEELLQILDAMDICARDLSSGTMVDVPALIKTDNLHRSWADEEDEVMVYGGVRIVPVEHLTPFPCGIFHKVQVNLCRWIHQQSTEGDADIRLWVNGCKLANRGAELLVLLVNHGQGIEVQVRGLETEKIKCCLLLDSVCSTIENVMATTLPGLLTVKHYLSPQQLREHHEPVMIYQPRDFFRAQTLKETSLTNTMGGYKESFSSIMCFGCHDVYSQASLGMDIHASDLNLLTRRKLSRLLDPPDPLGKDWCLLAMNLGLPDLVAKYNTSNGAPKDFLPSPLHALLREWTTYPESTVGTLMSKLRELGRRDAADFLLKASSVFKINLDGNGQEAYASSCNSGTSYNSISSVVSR
condition_label: at 1 µM
assay_metric: inhibition (%)
Reply with just the number (in %).

Example entries begin here.
[[record]]
chemical_string = "COc1ccc2[nH]c3c4[nH]c5ccc(OC)cc5c4c4c(c3c2c1)C(=O)NC4=O"
reading = 24.8

[[record]]
chemical_string = "[O-][S+]1CCN(Cc2ccc(-c3ccc4ncnc(Nc5ccc(OCc6cccc(F)c6)c(Cl)c5)c4c3)o2)CC1"
reading = 6.25

[[record]]
chemical_string = "O=S(=O)(CCNCc1ccc(-c2ccc3ncnc(Nc4ccc(OCc5cccc(F)c5)c(Cl)c4)c3c2)o1)c1ccccc1"
reading = 6.96


In: Could you tell me which inhibition is on file for `CCNC(=O)O[C@H]1CN[C@H](C#Cc2cc3ncnc(Nc4ccc(OCc5cccc(F)c5)c(Cl)c4)c3s2)C1` ?
Out: 3.45

In: Moving on to the next molecule: `COc1ccc(-c2cc3c(N)ncnc3o2)cc1`
Out: -3.05

In: Moving on to the next molecule: `CCCN1CCC(c2ccc(Nc3nc(Nc4cc(F)ccc4C(N)=O)c4cc[nH]c4n3)c(OC)c2)CC1`
Out: 50

* * *

test_system: RAC-gamma serine/threonine-protein kinase (Homo sapiens)
condition_label: at 0.1 µM
Description: GSK_PKIS: AKT3 mean inhibition at 0.1 uM [Nanosyn]
In this section, each of the compounds is paired with its reported inhibition.
Reply with just the number (in %).

[[record]]
chemical_string = "NS(=O)(=O)c1ccc(N/N=C2\\C(=O)Nc3ccc4ncccc4c32)cc1"
assay_metric = "inhibition"
unit_name = "%"
reading = 1.36


In: Value wanted: inhibition (RAC-gamma serine/threonine-protein kinase (Homo sapiens)) of entry `COc1ccc2[nH]c3c4[nH]c5ccc(OC)cc5c4c4c(c3c2c1)C(=O)NC4=O`
Out: 1.39

In: Moving on to the next compound: `CN1CCC(n2cnc(-c3ccc(F)cc3)c2-c2ccnc(N)n2)CC1`
Out: 2.57

In: Moving on to the next compound: `Cc1ccc2c(-c3ccnc(Nc4ccccc4)n3)c(-c3ccc(F)cc3)nn2n1`
Out: 1.53

In: Moving on to the next compound: `O=C(Nc1n[nH]c2cc(-c3ccc(F)cc3)ccc12)C1CC1`
Out: 0.49

* * *

test_system: cAMP-dependent protein kinase catalytic subunit PRKX (Homo sapiens) (UniProt P51817);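 note: values are mean percent inhibition of PRKX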
Sequence (P51817 whole entry): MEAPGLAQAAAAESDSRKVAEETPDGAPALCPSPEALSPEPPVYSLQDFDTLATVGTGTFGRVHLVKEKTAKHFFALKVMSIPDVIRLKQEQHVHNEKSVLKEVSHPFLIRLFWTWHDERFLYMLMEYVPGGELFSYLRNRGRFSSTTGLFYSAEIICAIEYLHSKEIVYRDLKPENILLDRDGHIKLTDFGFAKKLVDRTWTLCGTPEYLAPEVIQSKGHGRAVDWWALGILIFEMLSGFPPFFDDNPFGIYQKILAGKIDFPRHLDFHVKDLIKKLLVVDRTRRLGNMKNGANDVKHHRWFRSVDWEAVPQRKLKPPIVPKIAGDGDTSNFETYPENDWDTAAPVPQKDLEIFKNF
condition_label: at 0.1 µM
In this section, each of the compounds is paired with its reported inhibition.
Answer format: number, then unit.

Example entries begin here.
[[record]]
chemical_string = "CCn1cc(-c2ccnc3[nH]ccc23)c(-c2cccc(NC(=O)Nc3ccc(OCc4ccccc4)cc3)c2)n1"
reading = "4.18%"

[[record]]
chemical_string = "COc1ccc(-c2oc3ncnc(N)c3c2-c2ccc(NC(=O)Nc3cc(C(F)(F)F)ccc3F)cc2)cc1"
reading = "4.23%"

[[record]]
chemical_string = "COc1ccc(-c2cc3c(N)ncnc3o2)cc1"
reading = "0.58%"

[[record]]
chemical_string = "CC(=O)Nc1cccc(C#Cc2cncnc2Nc2ccc(OCc3cccc(F)c3)c(Cl)c2)c1"
reading = "1.66%"


Consider the additional compound presented here.
In: Could you tell me which inhibition is on file for `Nc1ncc(-c2cccc(S(N)(=O)=O)c2)c2scc(-c3ccc(F)c(Cl)c3)c12` ?
Out: 1.86%

* * *

test_system: Protein kinase C alpha type (Homo sapiens) (UniProt P17252);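 note: each value is the mean percent inhibition of PKC-alpha kinase activity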
condition_label: at 0.1 µM
In this section, each of the compounds is paired with its reported inhibition.
Answer format: number, then unit.

Example entries begin here.
[[record]]
compound = "COC(=O)c1sc(-n2cnc3cc(OC)c(OC)cc32)cc1OCc1ccccc1C(F)(F)F"
test_system = "Protein kinase C alpha type (Homo sapiens) (UniProt P17252)"
reading = "0.62%"

[[record]]
compound = "CS(=O)(=O)CCNCc1coc(-c2ccc3ncnc(Nc4ccc(OCc5ccccc5)cc4)c3c2)c1"
test_system = "Protein kinase C alpha type (Homo sapiens) (UniProt P17252)"
reading = "0.46%"

[[record]]
compound = "COc1cc(/C=N/Nc2ncnc3[nH]ncc23)ccc1O"
test_system = "Protein kinase C alpha type (Homo sapiens) (UniProt P17252)"
reading = "0.03%"


Consider the additional compound presented here.
In: Value wanted: inhibition (Protein kinase C alpha type (Homo sapiens) (UniProt P17252)) of entry CC1=C(C(=O)Nc2cc(Cl)c3[nH]ncc3c2)C(c2ccc(C(F)(F)F)cc2)CC(=O)N1 (centres undefined)
Out: 0.91%

* * *

test_system: Casein kinase I isoform gamma-1 (Homo sapiens);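 note: reported value is the mean inhibition of CK1 gamma-1 kinase activity across replicate measurements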
condition_label: at 1 µM
Please assign a class to every record based on measured inhibition, with ranges low value = under 4%, medium value = from 4% up to 7%, high value = 7% and over

[[record]]
molecule = "CCn1c(-c2nonc2N)nc2cnc(Oc3cccc(NC(=O)c4ccc(N(C)C)cc4)c3)cc21"
class_label = "low value"

[[record]]
molecule = "COc1cc(/C=N/Nc2ncnc3[nH]ncc23)ccc1O"
class_label = "high value"

[[record]]
molecule = "CN1CCC(n2cnc(-c3ccc(F)cc3)c2-c2ccnc(N)n2)CC1"
class_label = "high value"


In: Which band does `CC(=O)Nc1cccc(C#Cc2cncnc2Nc2ccc(OCc3cccc(F)c3)c(Cl)c2)c1` fall in?
Out: low value

In: Moving on to the next molecule: `NS(=O)(=O)c1ccc(Nc2ncc(-c3ccccc3)o2)cc1`
Out: medium value

In: Moving on to the next molecule: `CCNC(=O)O[C@H]1CN[C@H](C#Cc2cc3ncnc(Nc4ccc(OCc5cccc(F)c5)c(Cl)c4)c3s2)C1`
Out: low value

* * *

test_system: Mitogen-activated protein kinase 13 (Homo sapiens);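 note: reported value is the mean percent inhibition of p38delta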
condition_label: at 0.1 µM
In this section, each of the molecules is paired with its reported inhibition.

[[record]]
chemical_string = "COC(=O)c1sc(-n2cnc3cc(OC)c(OC)cc32)cc1OCc1ccccc1C(F)(F)F"
test_system = "Mitogen-activated protein kinase 13 (Homo sapiens)"
reading = "-0.67%"


In: Could you tell me which inhibition is on file for `COc1ccc(-c2cc(-c3c[nH]nc3-c3ccccn3)ccn2)cc1` ?
Out: 2.12%

In: Moving on to the next molecule: `CS(=O)(=O)CCNCc1coc(-c2ccc3ncnc(Nc4ccc(OCc5ccccc5)cc4)c3c2)c1`
Out: 1.6%

* * *

In this section, each of the compounds is paired with its reported inhibition.
test_system: Insulin receptor-related protein (Homo sapiens) (UniProt P14616);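 note: mean percent inhibition of IRR, reported within the GSK PKIS screening panel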
Sequence (P14616 27-742 limits assumed): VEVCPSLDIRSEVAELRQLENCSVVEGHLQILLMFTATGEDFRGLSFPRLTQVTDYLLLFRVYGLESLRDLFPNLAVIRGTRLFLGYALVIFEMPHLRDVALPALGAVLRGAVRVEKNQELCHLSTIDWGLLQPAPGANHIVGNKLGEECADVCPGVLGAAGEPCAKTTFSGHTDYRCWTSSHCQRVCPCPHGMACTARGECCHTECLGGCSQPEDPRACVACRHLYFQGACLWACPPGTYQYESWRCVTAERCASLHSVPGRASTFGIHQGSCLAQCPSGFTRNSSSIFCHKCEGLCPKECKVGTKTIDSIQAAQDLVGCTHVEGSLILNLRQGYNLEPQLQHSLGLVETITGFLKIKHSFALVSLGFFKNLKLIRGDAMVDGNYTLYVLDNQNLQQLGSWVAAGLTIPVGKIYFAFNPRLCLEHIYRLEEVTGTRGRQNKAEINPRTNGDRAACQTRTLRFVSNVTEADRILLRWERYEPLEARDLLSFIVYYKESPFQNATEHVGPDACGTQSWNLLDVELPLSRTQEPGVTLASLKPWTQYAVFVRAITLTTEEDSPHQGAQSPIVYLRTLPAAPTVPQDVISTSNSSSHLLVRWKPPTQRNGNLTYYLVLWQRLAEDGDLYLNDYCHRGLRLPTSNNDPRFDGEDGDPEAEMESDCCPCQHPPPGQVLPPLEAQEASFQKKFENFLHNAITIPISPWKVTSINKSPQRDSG
Sequence (P14616 747-1297 limits assumed): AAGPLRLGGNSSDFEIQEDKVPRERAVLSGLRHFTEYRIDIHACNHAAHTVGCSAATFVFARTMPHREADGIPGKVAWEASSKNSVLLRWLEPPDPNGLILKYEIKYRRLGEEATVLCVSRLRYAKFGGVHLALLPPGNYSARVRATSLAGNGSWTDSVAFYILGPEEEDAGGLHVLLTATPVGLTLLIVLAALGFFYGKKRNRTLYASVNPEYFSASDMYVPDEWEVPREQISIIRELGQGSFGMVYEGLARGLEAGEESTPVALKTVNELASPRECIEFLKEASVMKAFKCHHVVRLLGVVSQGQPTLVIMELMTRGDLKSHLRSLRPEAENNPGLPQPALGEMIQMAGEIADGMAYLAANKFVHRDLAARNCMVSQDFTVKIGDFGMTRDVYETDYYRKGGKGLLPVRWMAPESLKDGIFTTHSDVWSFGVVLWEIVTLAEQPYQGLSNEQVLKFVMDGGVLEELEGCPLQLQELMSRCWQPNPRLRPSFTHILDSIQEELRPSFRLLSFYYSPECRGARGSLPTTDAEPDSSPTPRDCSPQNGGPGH
condition_label: at 0.1 µM
Reply with just the number (in %).

In: Could you tell me which inhibition is on file for `CCCN1CCC(c2ccc(Nc3nc(Nc4cc(F)ccc4C(N)=O)c4cc[nH]c4n3)c(OC)c2)CC1` ?
Out: 93.3

* * *

test_system: Serine/threonine-protein kinase PAK 6 (Homo sapiens) (UniProt Q9NQU5);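 note: values are mean percent inhibition of PAK6 kinase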
Sequence (Q9NQU5 whole entry, looked up): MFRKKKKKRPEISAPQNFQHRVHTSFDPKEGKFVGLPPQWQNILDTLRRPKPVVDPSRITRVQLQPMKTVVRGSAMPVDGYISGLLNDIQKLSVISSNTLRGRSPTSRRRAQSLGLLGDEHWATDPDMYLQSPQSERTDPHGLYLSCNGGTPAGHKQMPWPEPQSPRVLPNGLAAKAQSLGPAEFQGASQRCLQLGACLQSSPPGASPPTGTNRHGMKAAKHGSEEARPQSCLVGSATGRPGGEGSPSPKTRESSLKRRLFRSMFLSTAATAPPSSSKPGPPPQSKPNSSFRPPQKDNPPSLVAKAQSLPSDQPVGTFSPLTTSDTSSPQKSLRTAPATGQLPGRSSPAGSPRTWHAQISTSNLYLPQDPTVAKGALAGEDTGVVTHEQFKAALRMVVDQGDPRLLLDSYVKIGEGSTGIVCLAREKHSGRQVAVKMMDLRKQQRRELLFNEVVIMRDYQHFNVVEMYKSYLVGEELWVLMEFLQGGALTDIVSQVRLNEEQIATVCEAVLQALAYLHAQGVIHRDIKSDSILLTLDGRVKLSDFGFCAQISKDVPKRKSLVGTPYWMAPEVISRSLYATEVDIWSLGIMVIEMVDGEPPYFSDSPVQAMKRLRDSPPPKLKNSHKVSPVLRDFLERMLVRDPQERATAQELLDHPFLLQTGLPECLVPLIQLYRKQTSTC
condition_label: at 1 µM
assay_metric: inhibition (%)
Reply with just the number (in %).

Example entries begin here.
[[record]]
compound = "COc1ccc(CNC(=O)c2ccc(-c3cc(-c4nnc(C)o4)ccc3C)cc2)cc1"
test_system = "Serine/threonine-protein kinase PAK 6 (Homo sapiens) (UniProt Q9NQU5)"
assay_metric = "inhibition"
reading = 11.5

[[record]]
compound = "COC(=O)Nc1nc2ccc(Oc3ccc(NC(=O)Nc4cccc(Cl)c4)cc3)cc2[nH]1"
test_system = "Serine/threonine-protein kinase PAK 6 (Homo sapiens) (UniProt Q9NQU5)"
assay_metric = "inhibition"
reading = -1.03

[[record]]
compound = "NC(=O)c1sc(-n2cnc3ccc(C(F)(F)F)cc32)cc1OCc1ccccc1Br"
test_system = "Serine/threonine-protein kinase PAK 6 (Homo sapiens) (UniProt Q9NQU5)"
assay_metric = "inhibition"
reading = -7.15

[[record]]
compound = "CCn1cc(-c2ccnc3[nH]ccc23)c(-c2cccc(NC(=O)Nc3ccc(OCc4ccccc4)cc3)c2)n1"
test_system = "Serine/threonine-protein kinase PAK 6 (Homo sapiens) (UniProt Q9NQU5)"
assay_metric = "inhibition"
reading = 3.29


In: Could you tell me which inhibition is on file for CC1=C(C(=O)Nc2cc(Cl)c3[nH]ncc3c2)C(c2ccc(C(F)(F)F)cc2)CC(=O)N1 (stereo unspecified) ?
Out: -3.39

In: Moving on to the next compound: `O=C(Nc1n[nH]c2cc(-c3ccc(F)cc3)ccc12)C1CC1`
Out: -5.36

* * *

test_system: Fibroblast growth factor receptor 4 (Homo sapiens);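 note: reported figure is the averaged percent inhibition of FGFR4, from the GSK PKIS kinase screening panel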
condition_label: at 1 µM
assay_metric: inhibition (%)
Reply with just the number (in %).

Example entries begin here.
[[record]]
chemical_string = "O=S(=O)(CCNCc1ccc(-c2ccc3ncnc(Nc4ccc(OCc5cccc(F)c5)c(Cl)c4)c3c2)o1)c1ccccc1"
test_system = "Fibroblast growth factor receptor 4 (Homo sapiens)"
reading = 1.88

[[record]]
chemical_string = "Cc1ccc(O)cc1Nc1ccnc2cc(-c3ccccn3)ccc12"
test_system = "Fibroblast growth factor receptor 4 (Homo sapiens)"
reading = 30.8

[[record]]
chemical_string = "Cc1cccc(Nc2ncc(-c3ccccc3)o2)c1"
test_system = "Fibroblast growth factor receptor 4 (Homo sapiens)"
reading = 1.36


In: Could you tell me which inhibition is on file for `CCn1c(-c2nonc2N)nc2cnc(Oc3cccc(NC(=O)c4ccc(N(C)C)cc4)c3)cc21` ?
Out: -0.05

In: Moving on to the next compound: `c1ccc(-c2nc3n(c2-c2ccc4c(c2)OCO4)CCC3)nc1`
Out: 1.32
